Test: Murine liver microsome stability
Type: in vitro ADME
Settings: % remaining after 30 min at 37° C. in the presence of NADPH
Please go through the items and note down their MLMS.

### Prompt Requested field: MLMS. Item: Cc1ccc(Nc2nc(C)cc(Nc3ccc(NC(=O)c4ccco4)cc3)n2)cc1
### Response 68%

### Prompt Input CCNc1cc(Nc2ccc(NC(=O)c3ccco3)cc2)nc(C)n1
### Response 64%

### Prompt Input Cc1ccc(Nc2cc(C)nc(Nc3ccc(NC(=O)c4ccco4)cc3)n2)cc1
### Response 63%

### Prompt Input Cc1nc(Nc2ccc(NC(=O)c3ccco3)cc2)cc(N2CCCC2)n1
### Response 49%

### Prompt Input Cc1nc(Nc2ccc(NC(=O)c3ccco3)cc2)cc(N2CCCCC2)n1
### Response 36%

### Prompt Input Cc1nc(Nc2ccc(NC(=O)c3ccco3)cc2)cc(N(C)C)n1
### Response 65%

### Prompt Input Cc1ccc(Nc2cc(Nc3ccc(NC(=O)c4ccco4)cc3)nc(C)n2)cc1
### Response 44%

### Prompt Input Cc1nc(Nc2ccc(NC(=O)c3ccco3)cc2)cc(-n2cccn2)n1
### Response 62%

* * *

Experiment: Cytotoxicity (CC50) against Hela cells for 3 d
Format: cell-based
Settings: human
Please go through the items and note down their CC50 at 3 d.
Respond numerically; units are µM and should not be typed.

### Prompt Requested field: CC50 at 3 d. Item: Cc1ccc(Nc2nc(C)cc(Nc3ccc(NC(=O)c4ccco4)cc3)n2)cc1
### Response 5.5

### Prompt Input Cc1ccc(Nc2nc(C)cc(Nc3ccc(NC(=O)Nc4cccc(Cl)c4)cc3)n2)cc1
### Response 2.7

### Prompt Input Cc1nc(Nc2ccc(NC(=O)c3cccs3)cc2)cc(N(C)C)n1
### Response 57

* * *

System: HCMV strain TB40/E
Experiment: CMV infection (neutralization) assay, IE1 immunostain 24 hpi, TB40/E
Type: cell-based, Human cytomegalovirus
Settings: Human betaherpesvirus 5, ARPE-19
pIC50: −log10 of the molar value.
MEASUREMENT_NAME: pIC50

### Prompt Requested field: pIC50. Item: Cc1nc(Nc2ccc(NC(=O)c3ccco3)cc2)cc(-n2cccn2)n1
### Response ~5.28

* * *

Assay: Cytotoxicity (CC50) against Hela cells for 3 d
Assay type: cell-based
Settings: human
MEASUREMENT_NAME: CC50 at 3 d

### Prompt Requested field: CC50 at 3 d. Item: Cc1nc(Nc2ccc(NC(=O)c3ccco3)cc2)cc(-n2cccn2)n1
### Response > 100 µM

### Prompt Input Cc1nc(Nc2ccc(NC(=O)c3ccco3)cc2)cc(N2CCCC2)n1
### Response > 100 µM

### Prompt Input Cc1nc(Nc2ccc(NC(=O)c3ccco3)cc2)cc(N(C)C)n1
### Response > 100 µM
